# Experiment Description: MTT viability, IEC6
# Type: cell-based
# Condition: rat, IEC-6 small intestine epithelial cells, 1000 µM (IC50 exceeded 1000 µM), read-out: viability ± standard deviation at 1000 µM
Property: viability at 24 h, 1000 µM (%)
Numeric answer only, unit % assumed.

viability at 24 h, 1000 µM measured on CC(=O)CCC=C(C)C(C)CCC=C(C)C (stereo not drawn) [Compound 6] = 95

viability at 24 h, 1000 µM measured on CC(=CC=O)CCC=C(C)C(C)CCCC(C)C (stereo not drawn) [Compound 20, 3,7,8,12-Tetramethyltrideca-2,6-dienal] = 64

viability at 24 h, 1000 µM measured on CC(=O)OCC=C(C)CCC=C(C)CCC=C(C)C [Farnesyl acetate (5), farnesyl acetate, reference compound] = 78

viability at 24 h, 1000 µM measured on CC(C)=CCCC(C)CCC(C)=CC=O (stereo not drawn) [Compound 22, 3,6,10-Trimethylundeca-2,9-dienal] = 76

viability at 24 h, 1000 µM measured on CC(=O)CCC=C(C)C(C)CCCC(C)C (stereo not drawn) [Compound 8] = 97

viability at 24 h, 1000 µM measured on CC(=O)OC/C=C(\C)CCC=CC(C)CCC=C(C)C (stereo not drawn) [Compound 31] = 94

viability at 24 h, 1000 µM measured on CC(C)=CCCC(C)CC(C)=CCO (stereo not drawn) [Compound 27, 3,5,9-Trimethyldeca-2,8-dien-1-ol] = 93

viability at 24 h, 1000 µM measured on C=CC(C)(O)CCC=CC(C)CCC=C(C)C (stereo not drawn) [Compound 13] = 96

viability at 24 h, 1000 µM measured on CC(C)=CCCC(C)CC(C)=CC=O (stereo not drawn) [Compound 21, 3,5,9-Trimethyldeca-2,8-dienal] = 91

* * *

Assay system Acinetobacter baumannii ATCC 19606; read-out recorded as MIC.
Numeric answer only, unit µg/mL assumed.

MIC measured on CC(C)=CCCC(C)CC(C)C(C)=CCO (stereo not shown) = 32

MIC measured on CC(C)=CCC/C(C)=C/CC/C(C)=C/CO [Farnesol (4), farnesol, reference compound] = 18

MIC measured on CC(=O)OCC=C(C)CC(C)CCC=C(C)C (stereo not shown) = 22

MIC measured on CC(C)=CCCC(C)CCC(C)=CCO (stereo not shown) = 18

* * *

Hi there, I'd appreciate the recorded viability at 24 h, 1000 µM for every entry that follows.
# Experiment Description: MTT viability, HaCaT
# Assay type: cell-based, human
# Condition: human, HaCaT keratinocytes, 1000 µM (IC50 exceeded 1000 µM), read-out: viability ± standard deviation at 1000 µM
# Protocol: Cell lines and in vitro culture conditions: The human promyelocytic leukaemia cell line HL-60 was obtained from the Centre of Molecular and Macromolecular Biology in Łódź, Poland and was cultured in RPMI 1640 medium with 20% heat-inactivated fetal bovine serum (FBS). To reduce spontaneous differentiation, the cells were never allowed to exceed a concentration of 1.0 × 10^6 cells/mL. […]
Numeric answer only, unit % assumed.

viability at 24 h, 1000 µM measured on CC(=O)CCC=C(C)C(C)CCC=C(C)C (stereo not shown) = 118

viability at 24 h, 1000 µM measured on CC(=O)CCC=C(C)CCC(C)CCC=C(C)C (stereo not shown) = 112

viability at 24 h, 1000 µM measured on CC(=O)OCC=C(C)CCC=C(C)CCC=C(C)C [Farnesyl acetate (5), farnesyl acetate, reference compound] = 102

viability at 24 h, 1000 µM measured on CC(=O)CCC=C(C)C(C)CCCC(C)C (stereo not shown) = 90

* * *

# Experiment Description: MTT viability, HT29
# Format: cell-based, human
# Condition: human, HT29 colorectal adenocarcinoma cells, 1000 µM (IC50 exceeded 1000 µM), read-out: viability ± standard deviation at 1000 µM
Property: viability at 24 h, 1000 µM (%)
Numeric answer only, unit % assumed.

viability at 24 h, 1000 µM measured on C=CC(C)(O)CC(C)CCC=C(C)C (stereo not drawn) = 104

viability at 24 h, 1000 µM measured on CC(C)=CCCC(C)CC(C)C(C)=CC=O (stereo not drawn) = 87

viability at 24 h, 1000 µM measured on CC(=O)CCC=C(C)CCC=C(C)C [Geranyl acetone (1), geranyl acetone, reference compound] = 98

viability at 24 h, 1000 µM measured on C=CC(C)(O)CCC=C(C)C(C)CCCC(C)C (stereo not drawn) = 112

viability at 24 h, 1000 µM measured on CC(=O)OCC=C(C)CCC(C)CCC=C(C)C (stereo not drawn) = 98

viability at 24 h, 1000 µM measured on C=CC(C)(O)CCC=CC(C)CCC=C(C)C (stereo not drawn) = 99

viability at 24 h, 1000 µM measured on CC(C)=CCCC(C)/C=C/CCC(C)=CC=O (stereo not drawn) = 96

viability at 24 h, 1000 µM measured on CC(=O)OCC=C(C)C(C)CC(C)CCC=C(C)C (stereo not drawn) = 83

viability at 24 h, 1000 µM measured on CC(C)=CCCC(C)CCC(C)=CCO (stereo not drawn) = 93

viability at 24 h, 1000 µM measured on CC(=O)OCC=C(C)CCC=C(C)C(C)CCCC(C)C (stereo not drawn) = 103

viability at 24 h, 1000 µM measured on CC(C)=CCCC(C)C(C)=CCCC(C)=CC=O (stereo not drawn) = 98

viability at 24 h, 1000 µM measured on CC(=O)CCC=C(C)CC(C)CCC=C(C)C (stereo not drawn) = 107

viability at 24 h, 1000 µM measured on CC(C)=CCCC(C)C(C)=CCCC(C)=CCO (stereo not drawn) = 78

viability at 24 h, 1000 µM measured on C=CC(C)(O)C(C)CC(C)CCC=C(C)C (stereo not drawn) = 108

viability at 24 h, 1000 µM measured on C=CC(C)(O)CC/C=C(\C)CCC=C(C)C (stereo not drawn) [Nerolidol (2), nerolidol, reference compound] = 103

viability at 24 h, 1000 µM measured on C=CC(C)(O)CCC=C(C)C(C)CCC=C(C)C (stereo not drawn) = 97

viability at 24 h, 1000 µM measured on CC(=O)CCC=C(C)C(C)CC(C)CCC=C(C)C (stereo not drawn) = 92

viability at 24 h, 1000 µM measured on CC(C)=CCCC(C)CC(C)=CC=O (stereo not drawn) = 98

* * *

Hi there, I'd appreciate the recorded MIC for every entry that follows.
Numeric answer only, unit µg/mL assumed.

Tested on Staphylococcus aureus ATCC 43300: CC(C)=CCCC(C)CCC(C)=CCO (centres unmarked) . Observed MIC: 26

Tested on Staphylococcus aureus ATCC 43300: CC(C)=CCC/C(C)=C/CC/C(C)=C/CO [Farnesol (4), farnesol, reference compound] . Observed MIC: 26

Tested on Staphylococcus aureus ATCC 43300: CC(C)=CCCC(C)C(C)=CCCC(C)=CC=O (centres unmarked) . Observed MIC: 18

Tested on Staphylococcus aureus ATCC 43300: CC(C)=CCCC(C)CC(C)C(C)=CC=O (centres unmarked) . Observed MIC: 28

Tested on Staphylococcus aureus ATCC 43300: CC(C)=CCCC(C)/C=C/CCC(C)=CC=O (centres unmarked) . Observed MIC: 28

Tested on Staphylococcus aureus ATCC 43300: CC(C)=CCCC(C)CC(C)C(C)=CCO (centres unmarked) . Observed MIC: 28

Tested on Staphylococcus aureus ATCC 43300: CC(C)=CCCC(C)C(C)=CCCC(C)=CCO (centres unmarked) . Observed MIC: 22

Tested on Staphylococcus aureus ATCC 43300: CC(=O)OCC=C(C)C(C)CC(C)CCC=C(C)C (centres unmarked) . Observed MIC: 34

Tested on Staphylococcus aureus ATCC 43300: CC(=O)OCC=C(C)CCC=C(C)C(C)CCC=C(C)C (centres unmarked) . Observed MIC: 30

Tested on Staphylococcus aureus ATCC 43300: CC(=O)OCC=C(C)CC(C)CCC=C(C)C (centres unmarked) . Observed MIC: 26

Tested on Staphylococcus aureus ATCC 43300: CC(C)=CCCC(C)=CCCC(C)=CC=O [Farnesal (3), farnesal, reference compound] . Observed MIC: 24

Tested on Staphylococcus aureus ATCC 43300: CC(=O)OCC=C(C)CCC=C(C)C(C)CCCC(C)C (centres unmarked) . Observed MIC: 28

Tested on Staphylococcus aureus ATCC 43300: CC(C)=CCCC(C)CCC(C)=CC=O (centres unmarked) . Observed MIC: 26

Tested on Staphylococcus aureus ATCC 43300: CC(C)=CCCC(C)CC(C)=CCO (centres unmarked) . Observed MIC: 28

Tested on Staphylococcus aureus ATCC 43300: CC(=O)OCC=C(C)CCC(C)CCC=C(C)C (centres unmarked) . Observed MIC: 32

Tested on Staphylococcus aureus ATCC 43300: CC(C)=CCCC(C)/C=C/CCC(C)=CCO (centres unmarked) . Observed MIC: 28

Tested on Staphylococcus aureus ATCC 43300: CC(=O)OCC=C(C)CCC=C(C)CCC=C(C)C [Farnesyl acetate (5), farnesyl acetate, reference compound] . Observed MIC: 28
